# tested on: VLA4 (Homo sapiens, UniProt P05556+P13612)
# Construct: endogenous in cells
# Sequence (P13612 34-1032): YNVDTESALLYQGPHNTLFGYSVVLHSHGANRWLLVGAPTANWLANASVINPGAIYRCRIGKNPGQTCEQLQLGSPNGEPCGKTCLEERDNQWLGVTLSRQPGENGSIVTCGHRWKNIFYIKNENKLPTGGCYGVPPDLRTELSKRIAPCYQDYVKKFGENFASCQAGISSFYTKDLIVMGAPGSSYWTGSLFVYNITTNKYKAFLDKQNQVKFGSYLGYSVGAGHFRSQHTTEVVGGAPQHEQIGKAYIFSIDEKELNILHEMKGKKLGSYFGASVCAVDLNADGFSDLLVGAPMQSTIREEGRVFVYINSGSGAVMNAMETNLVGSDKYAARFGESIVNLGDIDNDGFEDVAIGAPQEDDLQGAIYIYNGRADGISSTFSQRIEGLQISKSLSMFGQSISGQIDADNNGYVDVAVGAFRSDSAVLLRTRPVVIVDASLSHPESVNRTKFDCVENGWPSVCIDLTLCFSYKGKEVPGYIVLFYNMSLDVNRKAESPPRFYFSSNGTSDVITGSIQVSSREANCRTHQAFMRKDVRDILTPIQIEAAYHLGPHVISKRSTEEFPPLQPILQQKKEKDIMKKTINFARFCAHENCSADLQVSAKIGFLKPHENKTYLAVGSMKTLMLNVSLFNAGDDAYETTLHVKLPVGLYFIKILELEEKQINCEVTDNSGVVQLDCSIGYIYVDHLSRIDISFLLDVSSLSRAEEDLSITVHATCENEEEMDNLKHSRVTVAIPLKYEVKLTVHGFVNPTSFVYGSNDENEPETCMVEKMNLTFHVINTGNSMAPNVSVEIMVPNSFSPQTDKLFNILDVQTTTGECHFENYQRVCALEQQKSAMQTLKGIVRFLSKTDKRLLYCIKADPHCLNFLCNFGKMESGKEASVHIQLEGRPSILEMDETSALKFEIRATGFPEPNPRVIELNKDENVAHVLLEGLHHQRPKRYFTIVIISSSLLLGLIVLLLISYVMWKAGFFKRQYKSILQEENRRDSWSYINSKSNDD
# Sequence (P05556 21-798): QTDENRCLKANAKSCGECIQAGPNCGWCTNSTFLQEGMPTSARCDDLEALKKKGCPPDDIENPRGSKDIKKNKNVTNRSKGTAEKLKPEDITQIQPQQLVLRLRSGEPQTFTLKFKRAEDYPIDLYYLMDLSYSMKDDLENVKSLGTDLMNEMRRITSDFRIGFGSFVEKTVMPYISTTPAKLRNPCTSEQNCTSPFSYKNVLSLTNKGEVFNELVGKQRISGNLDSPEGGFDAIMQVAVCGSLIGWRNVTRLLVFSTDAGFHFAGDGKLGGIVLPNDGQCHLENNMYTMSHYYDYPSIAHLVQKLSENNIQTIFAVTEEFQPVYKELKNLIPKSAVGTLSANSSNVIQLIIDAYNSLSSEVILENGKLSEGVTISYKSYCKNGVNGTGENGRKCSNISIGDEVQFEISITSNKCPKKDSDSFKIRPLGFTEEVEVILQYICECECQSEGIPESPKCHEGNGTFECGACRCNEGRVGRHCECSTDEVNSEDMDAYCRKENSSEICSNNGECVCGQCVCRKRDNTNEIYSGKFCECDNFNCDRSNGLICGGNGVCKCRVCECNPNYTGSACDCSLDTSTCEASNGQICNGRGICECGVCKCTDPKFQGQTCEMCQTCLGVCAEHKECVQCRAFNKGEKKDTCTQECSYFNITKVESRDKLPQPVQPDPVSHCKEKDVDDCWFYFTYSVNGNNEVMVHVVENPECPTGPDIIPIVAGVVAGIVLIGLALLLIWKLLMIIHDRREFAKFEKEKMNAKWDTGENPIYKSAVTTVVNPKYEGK
# assay: Inhibition of VLA4-dependent adhesion to BSA-CS1 (labelled Ramos cells)
# test parameters: binding of BCECF-AM labelled Ramos cells to CS1 peptide-coated wells, 2 mM MnCl2, 30 minutes at room temperature; IC50 range
measure: IC50

Sample records with IC50:
Which IC50 value belongs to CCC(C)C(NC(=O)Cc1ccc(NC(=O)Nc2ccccc2)cc1)C(=O)NC(CC(=O)O)c1ccccc1 (stereo not drawn) [compound 1131] ? 0.05 to 10 µM

Which IC50 value belongs to COc1ccc(C(CC(=O)O)NC(=O)C(CCSC)NC(=O)Cc2ccc(NC(=O)Nc3ccccc3)cc2)cc1 (stereo not drawn) [compound 1089] ? < 0.05 µM

Which IC50 value belongs to NCC(NC(=O)Cc1ccc(NC(=O)Nc2ccccc2)cc1)C(=O)NC(CC(=O)O)c1ccccc1 (stereo not drawn) [compound 1138] ? 0.05 to 10 µM

Which IC50 value belongs to CC(C)CC(NC(=O)Cc1cccnc1)C(=O)NC(CC(=O)O)c1ccccc1 (stereo not drawn) [compound 1005] ? > 10 µM

Which IC50 value belongs to CC(C)CC(C(=O)NC(CC(=O)O)c1ccccc1)N(C)C(=O)CCc1ccc(O)cc1 (stereo not drawn) [compound 1087] ? > 10 µM

Which IC50 value belongs to CN(C)C(=O)CC(NC(=O)Cc1ccc(NC(=O)Nc2ccccc2)cc1)C(=O)NC(CC(=O)O)c1ccc2c(c1)OCO2 (stereo not drawn) [compound 1214] ? 0.05 to 10 µM

Proceeding to the next compound to report its IC50.
Which IC50 value belongs to CC(C)CC(C(=O)NC(CC(=O)O)c1ccccc1)N(C)C(=O)Cc1ccc(NC(=O)Nc2ccccc2)cc1 (stereo not drawn) [compound 1053] ? 0.05 to 10 µM

----------
Reported pIC50 values are given for each entry in this list.
# tested on: VLA4 (Homo sapiens, UniProt P05556+P13612)
# Construct: endogenous in cells
# assay: Inhibition of VLA4-dependent adhesion to BSA-CS1 (labelled Ramos cells)
# test parameters: binding of BCECF-AM labelled Ramos cells to CS1 peptide-coated wells, 2 mM MnCl2, 30 minutes at room temperature; IC50 range
pIC50: −log10 of the molar value.

Sample records with pIC50:
Which pIC50 value belongs to O=C(O)CC(NC(=O)C(CCCCNC(=O)OCc1ccccc1)NC(=O)Cc1ccc(NC(=O)Nc2ccccc2)cc1)c1ccccc1 (stereo not shown) ? 5.00 to 7.30

Which pIC50 value belongs to Cc1ccccc1NC(=O)Nc1ccc(CC(=O)NC(CC(C)C)C(=O)NC(CC(=O)O)c2ccc3c(c2)OCCO3)cc1 (stereo not shown) ? > 7.30

Which pIC50 value belongs to CC(=O)Nc1cccc(CC(=O)NC(CC(C)C)C(=O)NC(CC(=O)O)c2ccccc2)c1 (stereo not shown) ? < 5.00

Proceeding to the next compound to report its pIC50.
Which pIC50 value belongs to CC(C)CC(NC(=O)Cc1ccc(NC(=O)NCc2ccccc2)cc1)C(=O)NC(CC(=O)O)c1ccc2c(c1)OCO2 (stereo not shown) ? 5.00 to 7.30

----------
# tested on: VLA4 (Homo sapiens, UniProt P05556+P13612)
# Construct: endogenous in cells
# assay: Inhibition of VLA4-dependent adhesion to BSA-CS1 (labelled Ramos cells)
# test parameters: binding of BCECF-AM labelled Ramos cells to CS1 peptide-coated wells, 2 mM MnCl2, 30 minutes at room temperature; IC50 range
pIC50: −log10 of the molar value.
measure: pIC50

Sample records with pIC50:
State its pIC50 on VLA4 (Homo sapiens, UniProt P05556+P13612): CC(C)CC(NC(=O)CCCNC(=O)Nc1ccccc1)C(=O)NC(CC(=O)O)c1ccccc1 (stereo not shown) [compound 1187] < 5.00

State its pIC50 on VLA4 (Homo sapiens, UniProt P05556+P13612): CN(C)CCC(NC(=O)Cc1ccc(NC(=O)Nc2ccccc2)cc1)C(=O)NC(CC(=O)O)c1ccc2c(c1)OCO2 (stereo not shown) [compound 1215] < 5.00

State its pIC50 on VLA4 (Homo sapiens, UniProt P05556+P13612): CC(C)CC(NC(=O)Cc1ccc(NC(=O)c2ccccc2)cc1)C(=O)NC(CC(=O)O)c1ccccc1 (stereo not shown) [compound 1015] 5.00 to 7.30

State its pIC50 on VLA4 (Homo sapiens, UniProt P05556+P13612): O=C(O)CC(NC(=O)C(CCc1ccccc1)NC(=O)Cc1ccccc1)c1ccccc1 (stereo not shown) [compound 1123] < 5.00

State its pIC50 on VLA4 (Homo sapiens, UniProt P05556+P13612): CC(C)CC(C(=O)NC(CC(=O)O)c1ccccc1)N(C)C(=O)Cc1ccccc1 (stereo not shown) [compound 1114] < 5.00

Proceeding to the next molecule to report its pIC50.
State its pIC50 on VLA4 (Homo sapiens, UniProt P05556+P13612): CN=C(Nc1ccccc1)Nc1ccc(CC(=O)NC(CC(C)C)C(=O)NC(CC(=O)O)c2ccc3c(c2)OCO3)cc1 (stereo not shown) [compound 1380] 5.00 to 7.30

----------
# tested on: VLA4 (Homo sapiens, UniProt P05556+P13612)
# Construct: endogenous in cells; host or cells: Ramos cells
# assay: Inhibition of VLA4-dependent adhesion to BSA-CS1 (labelled Ramos cells)
# Format: cell-based
# test parameters: binding of BCECF-AM labelled Ramos cells to CS1 peptide-coated wells, 2 mM MnCl2, 30 minutes at room temperature; IC50 range
pIC50: −log10 of the molar value.
Reported pIC50 values are given for each entry in this list.

State its pIC50 on VLA4 (Homo sapiens, UniProt P05556+P13612): CC(C)CC(NC(=O)Cc1ccc(NS(=O)(=O)c2ccccc2)cc1)C(=O)NC(CC(=O)O)c1ccccc1 (stereo not shown) 5.00 to 7.30

State its pIC50 on VLA4 (Homo sapiens, UniProt P05556+P13612): CC(C)CC(NC(=O)Cc1cccc(NC(=O)Nc2ccccc2)c1)C(=O)NC(CC(=O)O)c1ccccc1 (stereo not shown) 5.00 to 7.30

State its pIC50 on VLA4 (Homo sapiens, UniProt P05556+P13612): NCCCCC(NC(=O)Cc1ccc(NC(=O)Nc2ccccc2)cc1)C(=O)NC(CC(=O)O)c1ccccc1 (stereo not shown) 5.00 to 7.30

Continuing:
State its pIC50 on VLA4 (Homo sapiens, UniProt P05556+P13612): COc1cc(CC(=O)NC(CC(C)C)C(=O)NC(CC(=O)O)c2ccc3c(c2)OCO3)ccc1NC(=O)Nc1ccccc1 (stereo not shown) > 7.30

----------
# tested on: VLA4 (Homo sapiens, UniProt P05556+P13612)
# Construct: endogenous in cells
# assay: Inhibition of VLA4-dependent adhesion to BSA-CS1 (labelled Ramos cells)
# test parameters: binding of BCECF-AM labelled Ramos cells to CS1 peptide-coated wells, 2 mM MnCl2, 30 minutes at room temperature; IC50 range
# Experimental: For example, the cell adhesion inhibitory activity of these compounds may be measured by determining the concentration of inhibitor required to block the binding of VLA-4-expressing cells to fibronectin- or CS1-coated plates. […] Inhibition of binding is measured by quantitating the fluorescence or radioactivity bound to the plate for each of the various concentrations of test compound, as well as for controls containing no test compound. […]
measure: IC50

Sample records with IC50:
Which IC50 value belongs to CC(C)CC(NC(=O)Cc1ccc(NC(=O)Nc2ccccc2Cl)cc1)C(=O)NC(CC(=O)O)c1ccc2c(c1)OCO2 (stereo not shown) [compound 1185] ? < 50 nM

Which IC50 value belongs to O=C(O)CC(NC(=O)C(CC(=O)N1CCSCC1)NC(=O)Cc1ccc(NC(=O)Nc2ccccc2)cc1)c1ccc2c(c1)OCO2 (stereo not shown) [compound 1176] ? 50 to 10000 nM

Which IC50 value belongs to CC(C)CC(NC(=O)Cc1ccc(-c2ccccc2)cc1)C(=O)NC(CC(=O)O)c1ccccc1 (stereo not shown) [compound 1009] ? > 10000 nM

Which IC50 value belongs to CC(C)CC(NC(=O)Cc1ccc(NC(=O)NC(C)C)cc1)C(=O)NC(CC(=O)O)c1ccc2c(c1)OCO2 (stereo not shown) [compound 1065] ? 50 to 10000 nM

Which IC50 value belongs to CC(=O)NCCCCC(NC(=O)Cc1ccc(NC(=O)Nc2ccccc2C)cc1)C(=O)NC(CC(=O)O)c1ccc2c(c1)OCO2 (stereo not shown) [compound 1270] ? < 50 nM

Continuing:
Which IC50 value belongs to COc1ccc(C(CC(=O)O)NC(=O)C(CCSC)NC(=O)Cc2ccccc2)cc1 (stereo not shown) [compound 1175] ? 50 to 10000 nM

Which IC50 value belongs to CC(C)CC(NC(=O)Cc1ccc(O)cc1)C(=O)NC(CC(=O)O)c1ccccc1 (stereo not shown) [compound 1091] ? 50 to 10000 nM

The measurements presented in this section are drawn from patent US7001921B1.
